Source of measurements: patent US20210032312A1

Biological target: T1, human CD8A-Fc (recombinant human CD8 alpha fused to Fc fragment of human IgG1) (human, UniProt P01732 22-182, limits assumed)
T1 construct: SPR ligand, captured by goat anti-human Fc; also called hCD8A-Fc; recombinant CD8 alpha; not shown: linker with flag (and polyhistidine) tag and Fc fragment of human IgG1; depends on which of the two constructs was used
T1 sequence (P01732 22-182 limits assumed): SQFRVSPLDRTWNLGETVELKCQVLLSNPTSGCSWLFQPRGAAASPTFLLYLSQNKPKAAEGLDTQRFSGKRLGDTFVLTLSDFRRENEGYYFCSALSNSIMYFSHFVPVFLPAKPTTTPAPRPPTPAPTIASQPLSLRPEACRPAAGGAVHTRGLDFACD
Assay: SPR (ProteOn), captured hCD8A-Fc, heterogeneous ligand fit, lower affinity population
property.label: Kd (nM)
Value expressed in nM; do not type the unit.

Please review the following examples before continuing.
INSERT INTO results (binder, value) VALUES
  ('P283AR9P1362_D6 (designed binder, FN3 domain (Centyrin); purified as His-tagged protein, tag not in the entry) LPAPKNLVVSRVTEDSARLSWAKRPGAFDSFLIQYQESEKVGEAIVLTVPGSERSYDLTGLKPGTEYTVSIYGVDVKYDIDSRPISSNPLSAIFTT', 0.98),
  ('P282DR9P1359_C5 (designed binder, FN3 domain (Centyrin); purified as His-tagged protein, tag not in the entry) LPAPKNLVVSRVTEDSARLSWTAPDAAFDSFWITYPEWPDPGGEAIVLTVPGSERSYDLTGLKPGTEYFVVIYGVKGGEIYSPLSAIFTT', 6.5),
  ('P282ER9P1360_C8 (designed binder, FN3 domain (Centyrin); purified as His-tagged protein, tag not in the entry) LPAPKNLVVSRVTEDSARLSWTAPDAAFDSFGILYYEPVDSGEAITLPVPGSERSYDLTGLKPGTEYWVVITGVKGGAPSTPLGTIFTT', 4.1),
  ('P282DR9P1359_F7 (designed binder, FN3 domain (Centyrin); purified as His-tagged protein, tag not in the entry) LPAPKNLVVSRVTEDSARLSWTAPDAAFDSFAIAYPEWPPQGEAIVLTVPGSERSYDLTGLKPGTEYFVVIYGVKGGSYSAPLSAIFTT', 12);

Query binder follows.
Which value of Kd has been reported for P282DR9P1359_G7 (designed binder, FN3 domain (Centyrin); purified as His-tagged protein, tag not in the entry) LPAPKNLVVSRVTEDSARLSWTAPDAAFDSFAITYIEKEHIEDGEAIVLTVPGSERSYDLTGLKPGTEYWVPIWGVKGGANSWPLSAIFTT in the records?
2.1
